Test system: Bacillus subtilis
assay_method_text: Antimicrobial activity against Bacillus subtilis MTCC 430 assessed as growth inhibition after 24 hr by agar streak dilution technique
Type: functional
settings: MTCC 430, 24 h
Would you kindly list MIC for each of these compounds?
Give bare numbers, in µg/mL.

Worked cases, MIC given:
O=C1CSC(c2cc3ccccc3nc2Cl)N1c1ccc([N+](=O)[O-])cc1 (stereo unspecified)
50
O=C1CSC(c2cc3ccccc3nc2Cl)N1c1cccc(Cl)c1 (stereo unspecified)
12.5
Cc1ccc(N2C(=O)C(Cl)C2c2cc3ccccc3nc2Cl)cc1 (stereo unspecified)
100
O=C1CSC(c2cc3ccccc3nc2Cl)N1c1ccccc1[N+](=O)[O-] (stereo unspecified)
62.5
O=C1CSC(c2cc3ccccc3nc2Cl)N1c1ccc(F)cc1 (stereo unspecified)
12.5

Q: Can you look up MIC on Bacillus subtilis for O=C1C(Cl)C(c2cc3ccccc3nc2Cl)N1c1cccc([N+](=O)[O-])c1 (stereo unspecified) ?
A: 50

###

Tested on: Escherichia coli
assay_method_text: Antimicrobial activity against Escherichia coli MTCC 739 assessed as diameter of growth inhibition zone after 24 hr by paper disk diffusion technique; also: test concentration or dose not given here
Format: functional
Label true when diameter of the inhibition zone (DIZ) is at or above 20 mm; anything below gets false.

O=C1CSC(c2cc3ccccc3nc2Cl)N1c1ccccc1 (stereo unspecified)
false
Cc1ccccc1N1C(=O)C(Cl)C1c1cc2ccccc2nc1Cl (stereo unspecified)
false

Q: Has Cc1cccc(N2C(=O)CSC2c2cc3ccccc3nc2Cl)c1 (stereo unspecified) a recorded diameter of the inhibition zone (DIZ) greater than or equal to 20 mm?
A: false

Q: // repeat for O=C1CSC(c2cc3ccccc3nc2Cl)N1c1ccc([N+](=O)[O-])cc1 (stereo unspecified) and report
A: true

Q: Entry to check: O=C1C(Cl)C(c2cc3ccccc3nc2Cl)N1c1cccc([N+](=O)[O-])c1 (stereo unspecified)
A: true

Q: Try this molecule too: O=C1C(Cl)C(c2cc3ccccc3nc2Cl)N1c1ccccc1[N+](=O)[O-] (stereo unspecified)
A: true

Q: Cool, now Cc1cnc(N2C(=O)CSC2c2cc3ccccc3nc2Cl)s1 (stereo unspecified)
A: true

###

Tested on: Pseudomonas aeruginosa
assay_method_text: Antimicrobial activity against Pseudomonas aeruginosa MTCC 741 assessed as diameter of growth inhibition zone after 24 hr by paper disk diffusion technique; also: test concentration or dose not given here
Type: functional
// label = TRUE if diameter of the inhibition zone (DIZ) is not less than 20 mm, otherwise FALSE

See these solved cases before continuing.
Cc1ccccc1N1C(=O)CSC1c1cc2ccccc2nc1Cl (stereo not given)
FALSE
O=C1C(Cl)C(c2cc3ccccc3nc2Cl)N1c1cccc([N+](=O)[O-])c1 (stereo not given)
TRUE
O=C1CSC(c2cc3ccccc3nc2Cl)N1c1cccc(Cl)c1 (stereo not given)
TRUE

Read the next record carefully.
Q: In plain terms: is recorded diameter of the inhibition zone (DIZ) at least 20 mm for Cc1ccccc1N1C(=O)C(Cl)C1c1cc2ccccc2nc1Cl (stereo not given) ?
A: FALSE

###

Tested on: Mycobacterium tuberculosis
assay_method_text: Antituberculosis activity against Mycobacterium tuberculosis H37Rv assessed as growth inhibition after 12 to 28 days by L-J MIC method
Type: functional
For each entry below, report its growth inhibition (GI) value.
Give bare numbers, in %.

The following molecules each have a reported value; give each one's growth inhibition (GI).
1. O=C1C(Cl)C(c2cc3ccccc3nc2Cl)N1c1ccccc1Cl (stereo not given)
2. O=C1CSC(c2cc3ccccc3nc2Cl)N1c1ccc([N+](=O)[O-])cc1 (stereo not given)
3. Cc1cccc(N2C(=O)C(Cl)C2c2cc3ccccc3nc2Cl)c1 (stereo not given)
4. O=C1CSC(c2cc3ccccc3nc2Cl)N1c1cccc([N+](=O)[O-])c1 (stereo not given)
5. O=C1C(Cl)C(c2cc3ccccc3nc2Cl)N1c1ccc(Cl)cc1 (stereo not given)
6. O=C1CSC(c2cc3ccccc3nc2Cl)N1c1ccc(Cl)cc1 (stereo not given)
7. Cc1cccc(N2C(=O)CSC2c2cc3ccccc3nc2Cl)c1 (stereo not given)
8. Cc1ccc(N2C(=O)CSC2c2cc3ccccc3nc2Cl)cc1 (stereo not given)

A:
[97, 97, 90, 94, 95, 96, 90, 94]

Dear colleague, could you please provide growth inhibition (GI) for the molecules listed below?
1. O=C1CSC(c2cc3ccccc3nc2Cl)N1c1ccc(F)cc1 (stereo not given)
2. O=C1C(Cl)C(c2cc3ccccc3nc2Cl)N1c1ccccc1 (stereo not given)

A:
1: 99; 2: 90

All values here come from ChEMBL document CHEMBL3045012.
